Test system: K562
Assay: NCI tumour cell line growth inhibition, 48 h
The source made the active and inactive calls. Cut-off read from the data, not from the text of the source: active = GI50 up to about 1.1 µM and inactive = higher. Where a SMILES comes first, the peptide text is derived from it. The star is where a group is joined. Cbz = O=C(OCc1ccccc1)*
Observation Type: GI50

Would you please look over these solved cases?
NC1CC(=O)c2c(I)sc(I)c21 (stereo not given)
8.95 µM (inactive)
CCO/C=N\c1c(C#N)c(-c2ccc(Cl)cc2)cn1-c1ccc(C)cc1
> 100 µM (inactive)
C=C=C(Sc1ccccc1)C(C)(C)O
> 100 µM (inactive)
O=C(Nc1cccc(C(F)(F)F)c1)c1cc(Br)cc(Br)c1O
2.08 µM (inactive)
N#CC(C(=O)C(=O)C(C#N)c1ccc(Br)cc1)c1ccc(Br)cc1 (stereo not given)
12.6 µM (inactive)

-- ask GI50 of CCC1C(C(=O)Nc2ccccc2C)=C(C)NC(C)=C1c1ccccc1C (stereo not given) on K562?
-- reply 80 µM (inactive)

-- ask GI50 of CC(C)(C)OC(=O)NC(Cc1ccc(OC(C)(C)C)cc1)C(=O)N[C@H]1CCC[C@H]1C(=O)NC(Cc1ccccc1)C(=O)N1CCCC1C(N)=O (stereo not given in full) on K562?
-- reply > 100 µM (inactive)

-- ask GI50 of COC(=O)C(CC(C)C)NC(=O)C(CCCNC(=N)N)NC(=O)OCc1ccccc1 (stereo not drawn) (Cbz-Arg-Leu-OMe; configuration not given here) on K562?
-- reply > 100 µM (inactive)

-- ask GI50 of `O=S(=O)(N/N=C/c1ccc(Cl)cc1Cl)c1ccccc1` on K562?
-- reply 59 µM (inactive)

-- ask GI50 of `C/C(=C\c1ccccc1)C(=O)NCc1ccc(C(=O)NCCc2c[nH]c3ccccc23)cc1` on K562?
-- reply > 100 µM (inactive)

Origin of values: ChEMBL document CHEMBL1201862
